test: NCI Yeast Anticancer Drug Screen. Data for the sgs1 mgt1 strain (AID 161);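 note: 0% = growth of cultures given vehicle only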; conditions: S. cerevisiae sgs1 mgt1 strain, at 50.0 µM, active compounds read high
About 79,000 compounds went through this panel and 15% of them were active in at least one assay; those are over-represented in the sample as a whole.
Kindly state growth inhibition for each of the entries shown.
Only the number, expressed in %, is required.

Request: Item under review: `Nc1ccccc1NC(=O)c1nc2ccccc2[nH]1` . Reported growth inhibition?
Result: 19.6

Request: Further, for `Cc1ccc2cc(N)ccc2c1` ?
Result: 2.9

Request: Further, for `C=CCNC(=S)NCc1ccc(Cl)cc1` ?
Result: 22.7

Request: Further, for C1CCC(CN2CCN(CC3CCCCO3)CC2)OC1 (centres undefined) ?
Result: -1.05

Request: Further, for `CC(C)=NNS(=O)(=O)c1ccc(C)cc1` ?
Result: 2.65

Request: Further, for N=c1ccn(CC(O)COc2ccccc2)cc1 (centres undefined) ?
Result: -5.95

Request: Further, for C=C(C)C(O)CC (centres undefined) ?
Result: 15.3

Request: Further, for `COn1nnc2ccccc21` ?
Result: -19.9

Request: Further, for OC(c1ccccc1)C(Cl)c1ccccc1 (centres undefined) ?
Result: 1.9

Request: Further, for `COC(=O)c1ccc(N(C)CC/C(CNc2nc(N)[nH]c(=O)c2[N+](=O)[O-])=N\NC(N)=O)cc1` ?
Result: -2.4

Request: Further, for `Cc1ccc(NC(=O)Oc2cc(C)c(Cl)cc2C(C)C)cc1` ?
Result: 43

Request: Further, for COC1OC(CO)C(O)C(O)C1Br (centres undefined) ?
Result: 13

Request: Further, for CC(C(=O)O)N(CCC#N)CCC#N (centres undefined) ?
Result: -0.5

Request: Further, for `NC(=O)CNC(=O)CN1C(=O)c2ccccc2C1=O` ?
Result: -13.1

* * *

Experiment: NCI Yeast Anticancer Drug Screen. Data for the bub3 strain (AID 167)
Conditions: S. cerevisiae bub3 mutant strain, at 50.0 µM, active compounds read high
Experimental: Growth inhibition of yeast strains with defined genetic alterations is measured as a screen for potential anti-cancer activity. Selected strains with alterations in DNA damage repair or cell cycle control were exposed to compounds and growth inhibition was measured relative to vehicle treated controls. The strain used in this assay is bub3
About 79,000 compounds went through this panel and 15% of them were active in at least one assay; those are over-represented in the sample as a whole. Where a SMILES comes first, the peptide text is derived from it.
Think of 10% as a floor: if growth inhibition stands on it or above, it is Yes; beneath it, No.

Request: Does the molecule `N#Cc1ccc(Sc2ccccc2)cc1C#N` have recorded growth inhibition that is 10% or more?
Result: Yes

Request: Further, for COc1ccc(S(=O)Cc2cc(OC)c(OC)c(OC)c2)cc1 (centres undefined) ?
Result: No

Request: Further, for O=C(O)C1CC=CCC1C(=O)Nc1cccc(O)c1 (centres undefined) ?
Result: No

Request: Further, for CC1NC(=O)C2CCCN2C(=O)C2CCCN2C(=O)C(C(C)C)NC(=O)C(Cc2ccccc2)NC(=O)C(Cc2ccccc2)NC(=O)C2CCCN2C(=O)C2CCCN2C(=O)C(Cc2ccccc2)NC(=O)C(Cc2ccccc2)NC1=O (centres undefined) (cyclo(AFFPPFFVPP); configuration not given here) ?
Result: No

Request: Further, for `Cc1c(-c2ccccc2)[nH]c2cc(Cl)ccc2c1=O` ?
Result: Yes

Request: Further, for `CC(C)(C)[Si](C)(C)Oc1cc(CO)cc2c1cc(=N)o[n+]2[O-]` ?
Result: No

Request: Further, for `N#C/C1=C(\N)CCSSSC1` ?
Result: No

Request: Further, for Cc1cc(C)cc(NC(=O)CCC(=O)C2CCC/C2=N\NC(=O)C(=O)NN)c1 (centres undefined) ?
Result: No

Request: Further, for `CC(=[N-])CC(C)=O.O=C(CC(=Nc1ccccc1)c1ccccc1)c1ccccc1.[Cu+]` ?
Result: No

* * *

Kindly state growth inhibition for each of the entries shown.
Assay: NCI Yeast Anticancer Drug Screen. Data for the cln2 rad14 strain (AID 165);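 note: 0% = growth equal to vehicle treated cultures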
Details: S. cerevisiae cln2 rad14 strain, at 50.0 µM, active compounds read high
Procedure: Growth inhibition of yeast strains with defined genetic alterations is measured as a screen for potential anti-cancer activity. Selected strains with alterations in DNA damage repair or cell cycle control were exposed to compounds and growth inhibition was measured relative to vehicle treated controls. The strain used in this assay is cln2 rad14
This is part of a sample that, as a whole, favours compounds with a hit. Of some 79,000 tested, about 15% had one in any assay.
Only the number, expressed in %, is required.

Request: Item under review: `CC(C)(CCC(=O)O)C(=O)O` . Reported growth inhibition?
Result: 4.95

Request: Further, for `N=C(N)c1ccc(C(=N)N)cc1` ?
Result: -0.35

Request: Further, for `CCCC[N+](CCCC)(CCCC)CC(=O)[O-]` ?
Result: -45.1

Request: Further, for `NC(=O)c1nnsc1N/N=C/c1ccc([N+](=O)[O-])cc1` ?
Result: -2.05

Request: Further, for CC(O)/C=C/C(CCC(C)CO)C(C)C (configuration not stated) ?
Result: -10.2

Request: Further, for `CCC(=O)Nc1nn[nH]n1` ?
Result: 4.75

Request: Further, for `COCCOCc1nc(C#N)c(N)o1` ?
Result: 13.8

* * *

assay: NCI Yeast Anticancer Drug Screen. Data for the rad50 strain (AID 155);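 note: 0% = growth of vehicle-only cultures of the same strain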; settings: S. cerevisiae rad50 strain growth inhibition; at 50.0 µM; active compounds read high
The panel holds about 79,000 compounds, 15% with a hit somewhere; the sample as a whole holds those more often. Active and inactive are the calls of the source. Cut-off read from the data, not from the text of the source: active = growth inhibition above about 70%; inactive = the rest.
assay-endpoint: growth inhibition

Request: Item under review: `OCc1ccc(O)c(CO)n1` . Reported growth inhibition?
Result: -8.85% (inactive)

Request: Further, for `Oc1ccccc1CNCCNCc1ccccc1O` ?
Result: -12.2% (inactive)

Request: Further, for `CN(C)c1ccc(/C(=N\O)C(=O)O)cc1` ?
Result: -15.2% (inactive)

Request: Further, for `OCCN(CCO)c1ccc(O)cc1` ?
Result: -6.85% (inactive)

Request: Further, for Cc1c(C)c(C(C)O)c(C)c(C(C)O)c1C (stereo not drawn) ?
Result: 4.55% (inactive)

Request: Further, for `O=C(O)CC1(c2ccccc2)CCCCC1` ?
Result: -1.1% (inactive)

Request: Further, for `Cc1ccc(NC(=O)Nc2cccc(C(F)(F)F)c2)cc1NC(=O)Nc1cccc(C(F)(F)F)c1` ?
Result: 2.75% (inactive)

Request: Further, for `O=C(Nc1ccc(Cl)c(Cl)c1)Oc1ccccc1Cl` ?
Result: -15.2% (inactive)

Request: Further, for `CCCCCCCOCC(=O)O` ?
Result: 10% (inactive)

Request: Further, for `N=Cc1ccccc1O` ?
Result: -3.3% (inactive)

Request: Further, for O=NN(CC1(O)OCC(O)C(O)C1O)C(Cc1c[nH]c2ccccc12)C(=O)O (stereo not drawn) ?
Result: -8.7% (inactive)

Request: Further, for `O=C(NNC(=O)c1ccc(Cl)cc1Cl)c1ccc2ccccc2c1` ?
Result: 9.4% (inactive)

Request: Further, for `CC(=O)Nc1cc2c(cc1Br)-c1ccc(Br)cc1C2` ?
Result: 32.4% (inactive)

* * *

Kindly state growth inhibition for each of the entries shown.
Assay: NCI Yeast Anticancer Drug Screen. Data for the rad50 strain (AID 155);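 note: 0% = growth of vehicle-only cultures of the same strain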
Conditions: S. cerevisiae rad50 strain growth inhibition; at 50.0 µM; active compounds read high
Method: Growth inhibition of yeast strains with defined genetic alterations is measured as a screen for potential anti-cancer activity. Selected strains with alterations in DNA damage repair or cell cycle control were exposed to compounds and growth inhibition was measured relative to vehicle treated controls. The strain used in this assay is rad50
This is part of a sample that, as a whole, favours compounds with a hit. Of some 79,000 tested, about 15% had one in any assay. Activity calls are given as the source filed them. No stated cut-off is given here; in the data, active means growth inhibition above about 70%; inactive means the rest.

Request: Item under review: `NC(=S)/N=C/C1=C(O)CCCC1=O` . Reported growth inhibition?
Result: 2.05% (inactive)

Request: Further, for `C=C1[C@H](OCC(C)C)[C@@H](OCC(C)C)[C@@H](O)C(C)(C)/C=C/[C@H](C)C(=O)[C@@]2(O)C[C@H](C)[C@H](O)[C@@H]2[C@H]1OCC(C)C` ?
Result: -37.9% (inactive)

Request: Further, for `Cc1cc(C)nc(Sc2c([N+](=O)[O-])ncn2C)n1` ?
Result: 4.1% (inactive)

Request: Further, for `C[N+]1(CCc2ccccc2)CCOCC1` ?
Result: -13.6% (inactive)

Request: Further, for `C(=C(c1ccccc1)c1ccccc1)N1CCOCC1` ?
Result: -2.3% (inactive)

Request: Further, for `CCOC(=O)C(=O)Nc1ccccc1CC` ?
Result: -3% (inactive)

Request: Further, for CC(=O)OC1C(COC(N)=O)OC(n2c(-c3ccc(C)cc3)cc(-c3ccccc3)c(C#N)c2=O)C(OC(C)=O)C1OC(C)=O (stereo not given) ?
Result: -18.4% (inactive)

Request: Further, for `O=c1[nH]nc(NC2Nc3ccccc3N2)c2ccccc12` ?
Result: 17.3% (inactive)

Request: Further, for `COc1cccc(/C=N/N(C)c2c([N+](=O)[O-])cc(C(F)(F)F)cc2[N+](=O)[O-])c1O` ?
Result: -1.3% (inactive)

Request: Further, for `CC(=O)/C(=N/O)C(C)C` ?
Result: 4.6% (inactive)

Request: Further, for `c1ccc(C2SCCCS2)cc1` ?
Result: 33.2% (inactive)

Request: Further, for `CN(CC#N)CC#N` ?
Result: 19% (inactive)

Request: Further, for `CCOC(=O)[C@]1(Br)CC[C@]1(Br)C(=O)OCC` ?
Result: 16.2% (inactive)

Request: Further, for `CCOC(=O)c1ccc(Nc2nc3ccccc3nc2C(=O)OCC)cc1` ?
Result: -31.8% (inactive)

Request: Further, for CC(=O)OC1CCC2=C3CCC4(C)C(=O)CCC4C3C(O)C2(C)C1 (stereo not given) ?
Result: 0.05% (inactive)

Request: Further, for O=C1CSC(c2ccc(Br)cc2)N1c1nncs1 (stereo not given) ?
Result: -2.75% (inactive)

Request: Further, for `CSc1nnc(COc2ccc(Cl)cc2)o1` ?
Result: 22.3% (inactive)

Request: Further, for `C=C=CON1CCCCC1` ?
Result: -16% (inactive)

Request: Further, for `CCCCNc1nc2nc[nH]c2c(=O)[nH]1` ?
Result: -5.45% (inactive)

Request: Further, for `CC1(C)COC(c2ccccc2Cl)OC1` ?
Result: 20.1% (inactive)

Request: Further, for `CCCN(CCN(CC)CC)C(=O)N(CC)CC` ?
Result: -11% (inactive)

Request: Further, for `NC(=O)N/N=C1\CCCCC12CCCCC2` ?
Result: 4.3% (inactive)

Request: Further, for `Cc1cc(Br)ncc1[N+](=O)[O-]` ?
Result: -12.8% (inactive)

Request: Further, for `CCC(CC)COC(=O)c1ccccc1C(=O)OCC(CC)CC` ?
Result: -18.9% (inactive)

Request: Further, for CC(C)=C1C(=O)C[C@@]2(C)C[C@H]3OC3(C)CC/C=C(/C)CCC12 (stereo not given in full) ?
Result: 14.9% (inactive)

Source listed as PubChem BioAssay (NCI).
